target: T1, His-tagged human HtrA1 protease domain (human, UniProt Q92743 161-367); test: SPR (BIACORE T200), huHtrA1-PD-His captured by anti-His, Fab injected
T1 construct: His-tagged protease domain; also called huHtrA1-PD-His; huHtrA1-PD
T1 sequence (Q92743 other isoform, or with tags, fused parts or gaps limits assumed): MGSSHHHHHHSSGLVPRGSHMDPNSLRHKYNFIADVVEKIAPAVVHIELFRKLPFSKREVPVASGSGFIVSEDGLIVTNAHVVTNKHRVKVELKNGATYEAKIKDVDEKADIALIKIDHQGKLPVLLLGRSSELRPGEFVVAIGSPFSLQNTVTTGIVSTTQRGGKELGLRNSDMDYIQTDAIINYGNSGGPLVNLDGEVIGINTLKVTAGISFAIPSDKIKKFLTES
Kindly state kon for each of the entries shown.

h15H6.v2 variant HC7 (HC-A58F) Fab (Fab, V domains shown, Fab-Flag tag fusion from 293T cells) VH: EVQLVQSGAEVKKPGASVKVSCKASGYTFTDSEMHWVRQAPGQGLEWIGGVDPETDGAFYNQKFKGRATITRDTSTSTAYLELSSLRSEDTAVYYCTRGYDYDYALDYWGQGTLVTVSS VL: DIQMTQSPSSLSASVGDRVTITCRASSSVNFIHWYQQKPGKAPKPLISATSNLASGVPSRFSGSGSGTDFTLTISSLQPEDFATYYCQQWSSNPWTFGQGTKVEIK; 271000 M⁻¹ s⁻¹

Next up:
Reported kon of h15H6.v2 variant HC5 (HC-M34L) Fab (Fab, V domains shown, Fab-Flag tag fusion from 293T cells) VH: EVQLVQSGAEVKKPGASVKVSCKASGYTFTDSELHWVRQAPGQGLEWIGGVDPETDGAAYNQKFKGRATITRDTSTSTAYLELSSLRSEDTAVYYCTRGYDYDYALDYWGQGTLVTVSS VL: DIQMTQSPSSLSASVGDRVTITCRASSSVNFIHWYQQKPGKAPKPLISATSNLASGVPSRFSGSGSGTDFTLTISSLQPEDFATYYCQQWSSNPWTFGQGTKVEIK : 511000 M⁻¹ s⁻¹
